# Test system: Vaccinia virus
# PROTOCOL DESCRIPTION: Minimum inhibitory concentration required to reduce vaccinia virus(VV) induced cytopathogenicity by 50%
# Format: functional
# CONDITION LABEL: Orthopoxvirus vaccinia
Would you kindly list MIC50 for each of these compounds?
// units = µg/mL; emit number, no label

Query string: Look up MIC50: `NC(=O)c1cn([C@H]2C[C@H](O)[C@@H](CO)O2)c2ncnc(N)c12`
Result string: 0.4

Query string: Sample `Nc1ncnc2c1ccn2[C@@H]1O[C@H](CO)[C@@H](O)[C@H]1O` — what was its MIC50?
Result string: 0.007

Query string: Return reported MIC50; argument: `NC(=O)c1cn([C@@H]2O[C@H](CO)[C@@H](O)[C@@H]2O)c2ncnc(N)c12`
Result string: 0.2

Query string: Fill in the blank: the reported MIC50 of Nc1ncnc2c1ccn2C1OC(CO)CC1O (configuration not stated) is ____.
Result string: 1.5

Query string: Given the compound `N#Cc1cn([C@@H]2O[C@H](CO)[C@@H](O)[C@@H]2O)c2ncnc(N)c12` , what is its reported MIC50?
Result string: 1

Query string: MIC50 for `N#Cc1cn([C@H]2C[C@H](O)[C@@H](CO)O2)c2ncnc(N)c12` ?
Result string: 0.1

Query string: Name the reported MIC50 value associated with the compound `Nc1ncnc2c1ccn2[C@@H]1O[C@H](CO)[C@@H](O)[C@@H]1O`
Result string: 40

Query string: So what's the measured MIC50 for this one? `Nc1ncnc2c1ccn2[C@H]1C[C@H](O)[C@@H](CO)O1`
Result string: 10

Query string: Query: MIC50; subject: `NC(=O)c1cn([C@@H]2O[C@H](CO)[C@@H](O)[C@H]2O)c2ncnc(N)c12`
Result string: 0.02

Query string: Which MIC50 is reported for this compound? NC(=O)c1cn(C2OC(CO)CC2O)c2ncnc(N)c12 (configuration not stated)
Result string: 2

Query string: Request the reported MIC50 associated with `Nc1ncnc2c([C@@H]3O[C@H](CO)[C@@H](O)[C@H]3O)[nH]nc12`
Result string: 7

Query string: // lookup MIC50 for `NC(=O)c1ncn([C@@H]2O[C@H](CO)[C@@H](O)[C@H]2O)n1`
Result string: 20

Query string: Any idea what its MIC50 is? The compound is N#Cc1cn(C2OC(CO)CC2O)c2ncnc(N)c12 (configuration not stated)
Result string: 0.1

Query string: Reported MIC50 for `Nc1ncnc2c1ccn2[C@@H]1O[C@H](CO)[C@H](O)[C@H]1O` : what is it?
Result string: 0.03

====

# Test system: Vaccinia virus
# PROTOCOL DESCRIPTION: Minimum inhibitory concentration required to reduce vaccinia virus(VV) induced cytopathogenicity by 50%
# Format: functional
# CONDITION LABEL: Orthopoxvirus vaccinia
Answer each item with its documented MIC50.

Query string: Which value of MIC50 has been reported for `N#Cc1cn([C@@H]2O[C@H](CO)[C@@H](O)[C@H]2O)c2ncnc(N)c12` in the records?
Result string: > 0.04 µg/mL

Query string: Given `Nc1ncnc2c([C@H]3C[C@H](O)[C@@H](CO)O3)n[nH]c12` , state its recorded MIC50.
Result string: > 400 µg/mL

Query string: Can you look up the measured MIC50 of Nc1ncnc2c(C3OC(CO)CC3O)n[nH]c12 (stereo not drawn) for me?
Result string: > 400 µg/mL

Attribution: ChEMBL document CHEMBL1123899
